Assay: amyloid nucleation score (Sup35N fusion, yeast selection) (log enrichment); library NNK1; higher = more nucleation; inactive = no reads after selection;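 further: zero at mode of non-aggregating sequences after 7 days selection at 30°C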
Hi all, reminder that labels come from amyloid nucleation score, split as zone 1 (below -0.2), zone 2 (-0.2 to below 0.6), zone 3 (0.6 or more)

Illustrative cases are given below, each with its answer.
>>> class_name("LSVVVDRVLDNCLIGLYNAG")
"zone 2"
>>> class_name("PVLPDDLNARREYSGCIKYL")
"zone 3"
>>> class_name("ISVHHFR")
"zone 2"

Textbook exercise: identify the category of the substance given here, NIGIMNFIVLAFLQ , according to its measured value.
zone 3

Band for YALRVSR ?
zone 1

The entry to classify is MIMMDLHCGVILRALGEHGP ; which class holds it?
zone 3

// return the class label for SRNLLPSDTSHQVMYPVSTK
zone 2

Category of ILVGTWSLGSRAVEGNNWDH , please.
zone 1

Class for GTTVPGFCITKSVKTMGRNQ ?
zone 3

Which category does the recorded amyloid nucleation score put ERTICSVITMNHGSSAYQGS in?
zone 2

Field: class (amyloid nucleation score) — entry: YCSHMLRMYFSEDRPLAQLM
zone 1

Please indicate the class for RFNNDMTSLLSGRIAMEYSY based on its amyloid nucleation score.
zone 1

Bin? NKCIAKDGDMES
zone 2

###

Test: amyloid nucleation score (Sup35N fusion, yeast selection) (log enrichment); library NNK3; higher = more nucleation; inactive = no reads after selection
metric: amyloid nucleation score

Here are 5 substances together with their reported answers.
>>> reported_result("ILYLVR")
"inactive"
>>> reported_result("NLYFGHKSTS")
"inactive"
>>> reported_result("RSSSIYYICFQTFTRCNYPV")
"inactive"
>>> reported_result("LRWIGH")
"inactive"
>>> reported_result("LLVQLLLCKLKSMRLCCTVF")
"inactive"

As a next step, examine the substance that follows.
Output measured amyloid nucleation score for this item: NPSQSRSASWQHSYHRISGL
inactive

###

Assay: amyloid nucleation score (Sup35N fusion, yeast selection) (log enrichment); library NNK3; higher = more nucleation; inactive = no reads after selection
metric: amyloid nucleation score

Take a look at these entries with their results.
>>> reported_result("LFSTCSSWTQFLLRPAVSAV")
"inactive"
>>> reported_result("PWPNVLLCDNDRLSFRYRSF")
0.972
>>> reported_result("YYGVDHLLNWIPFACTARLG")
"inactive"
>>> reported_result("PSHSLSGRCHV")
"inactive"
>>> reported_result("WKLGLK")
"inactive"
>>> reported_result("ECTDFYGTGTFCFGSWRLSY")
1.76
>>> reported_result("YWSNPYSYKFYEFMIHTALQ")
"inactive"
>>> reported_result("PCRICINCCRRCIILLLF")
"inactive"
>>> reported_result("FSSMQDWSFGIYLNSEAPPT")
"inactive"
>>> reported_result("EFRIKRNR")
"inactive"

Return value of amyloid nucleation score for input RSCGVFHQRARVHCCIKSLP , no commentary.
inactive

Please list amyloid nucleation score recorded for the substance FLHPLSLDSNFLNSVCHFKK
inactive

Tell me amyloid nucleation score reported for LLGSMVWGYSARYNFRVSQG
inactive

###

Experiment: amyloid nucleation score (Sup35N fusion, yeast selection) (log enrichment); library NNK2; higher = more nucleation; inactive = no reads after selection
Would you please tag the item TRUE when its amyloid nucleation score is 0.8 or above, and FALSE when it is below?

>>> class_name("TLSCKFIKGWLIQQYSHNKD")
"FALSE"
>>> class_name("VKFCIMSGSTKTINNYSQAR")
"TRUE"
>>> class_name("CNCVARYGEVKEGIHVAFDY")
"FALSE"

Threshold query (amyloid nucleation score >= 0.8) on KGQVLWTLGCMSIFVSMTNM
TRUE

Decide: amyloid nucleation score of GECRRWKFGLWENVPDMSIK >= 0.8?
FALSE

Could you tell me if the measured amyloid nucleation score of PSFFCKWKSLYPTVNVCVVN reaches 0.8 or more?
FALSE

Hi team, for NGTCLYAYIMIRLISNEFSR , is the recorded amyloid nucleation score at or above 0.8?
FALSE

###

Assay: amyloid nucleation score (Sup35N fusion, yeast selection) (log enrichment); library NNK3; higher = more nucleation; inactive = no reads after selection
metric: amyloid nucleation score

Solved entries:
>>> reported_result("DSISISY")
"inactive"
>>> reported_result("RNKSSNFREHPVTSRITCRS")
"inactive"
>>> reported_result("LTSMNSGLSYLKLFASQNLR")
"inactive"
>>> reported_result("IPVGIRSRFVLYSCGMTGVK")
"inactive"
>>> reported_result("SYMPGNLSGLWAHLLMEKNC")
"inactive"
>>> reported_result("MLEEGVHINSGLMIVWYIIM")
"inactive"
>>> reported_result("RMAEVFLLIDCNFFYFDRYM")
2.02
>>> reported_result("MIIRGKPVIWMECLAVRTDR")
"inactive"

We next turn to a different substance, shown below.
Indicate the recorded amyloid nucleation score value for this substance: LLNCGLMLLRIDVCRATYYV
1.36

###

Experiment: amyloid nucleation score (Sup35N fusion, yeast selection) (log enrichment); library NNK3; higher = more nucleation; inactive = no reads after selection
metric: amyloid nucleation score

Here is how some substances turned out for amyloid nucleation score.
>>> reported_result("KMTLYIFCLAFMLWESNQII")
"inactive"
>>> reported_result("GCFSCVCLP")
"inactive"
>>> reported_result("MSDEDRYNRWFDTGVGVLDR")
"inactive"
>>> reported_result("LPAMIGIWCILTH")
"inactive"
>>> reported_result("SGRCRSGRQAIRCCILLNVL")
"inactive"
>>> reported_result("RVREPSVAVRECWCYLGDAV")
"inactive"
>>> reported_result("LNMKTV")
-0.702
>>> reported_result("WVCLWVIVLYHIPVLNKLLS")
"inactive"
>>> reported_result("LSAIFLCLSVCLGLHCVGLP")
"inactive"
>>> reported_result("DDDEVASCLPYWRCAALKSG")
"inactive"

Identify amyloid nucleation score associated with the substance VCTYNLAFGYFGVVWLTFVV
-0.519

Look up and state reported amyloid nucleation score for GPNRYW
inactive

For the substance SFQSLTM , give its reported amyloid nucleation score.
inactive

Determine from records and report amyloid nucleation score for EWCSMYILSC
inactive

For the substance LEFRYPAMWLKFSLYVWTLI , give its reported amyloid nucleation score.
inactive

Report amyloid nucleation score, nothing else, for this substance: SMRLEFGLSMCVWVVDPSN
0.706

Return reported amyloid nucleation score. Input substance: ALHFDFIFIYRDRCCCCTFY
1.27

Write down amyloid nucleation score measured for item NHFFALSLVII
inactive

For the substance NRMLNYIFDTTS , give its measured amyloid nucleation score value.
inactive

Answer with the recorded amyloid nucleation score of CVICSELLSSDCIIGDHRLR only.
1.7

Hello, please tell me recorded amyloid nucleation score for this one: MSPWSRMF
inactive

# return recorded amyloid nucleation score for entry FITTCRILWVRCTGIVNDFL
inactive

Give reported amyloid nucleation score value for LMYRYVTLNAFRESISYISS
inactive

Please supply the value of reported amyloid nucleation score for the item RFTDRCTLHFQMFVVLRAVI
inactive

Hello, please tell me recorded amyloid nucleation score for this one: KILRRNTWNMFPAALCGVSF
0.997

###

Test: amyloid nucleation score (Sup35N fusion, yeast selection) (log enrichment); library NNK1; higher = more nucleation; inactive = no reads after selection
Is amyloid nucleation score at least 0.6? Then YES. If not, NO.

>>> class_name("MEHYLACIWITHVCF")
"NO"
>>> class_name("ITSYSFIRSNGSVMGSWGSV")
"NO"
>>> class_name("SRTGRH")
"YES"
>>> class_name("YNTRTRILWARVVNRVINLW")
"YES"
>>> class_name("IFSFNMQDN")
"NO"

Attention now shifts to the item below.
Can KSAANTINIRPENETVPRFQ be said to have amyloid nucleation score at or above 0.6?
NO

###

Test: amyloid nucleation score (Sup35N fusion, yeast selection) (log enrichment); library NNK3; higher = more nucleation; inactive = no reads after selection
metric: amyloid nucleation score

Consider the following illustrative entries.
>>> reported_result("SNSFVDFRHSDWF")
"inactive"
>>> reported_result("IWYRDSFLPSGRYWFLRINW")
"inactive"
>>> reported_result("CFCVDADIIRTLMVCDIILS")
1.12
>>> reported_result("LFEHLRW")
0.685
>>> reported_result("CQDHVKNITAIPHSSGMYMS")
"inactive"

Look up and report measured amyloid nucleation score for this entry: FDDATEKFIS
inactive

Provide one value: measured amyloid nucleation score of ELSTWLAYYVRLGYWCLIMM
inactive

Read off the recorded amyloid nucleation score for RYRIPTSFL
inactive

Answer with reported amyloid nucleation score of ICSYTSVYSRKW
0.404

Provide only the value of recorded amyloid nucleation score for LFWSNLWRRDMNISVSNYWL
1.69

Give the value of amyloid nucleation score reported for the following: VVGIKV
inactive

Find the measured amyloid nucleation score of YRGPVGIDSGVRS and report it.
inactive

Answer with reported amyloid nucleation score of GNHQSRYSFVP
inactive

Using known records, supply amyloid nucleation score for SSVKMTDLRH
inactive

Tell us which amyloid nucleation score value is on record for GVVLSYNGTFWRVLINHHMC
inactive

Name the recorded amyloid nucleation score of the substance listed here: CQSKLKLSMLCRWFRCTIGK
inactive
